target_system: BCL-XL (Homo sapiens)
Sequence (Q07817 whole entry): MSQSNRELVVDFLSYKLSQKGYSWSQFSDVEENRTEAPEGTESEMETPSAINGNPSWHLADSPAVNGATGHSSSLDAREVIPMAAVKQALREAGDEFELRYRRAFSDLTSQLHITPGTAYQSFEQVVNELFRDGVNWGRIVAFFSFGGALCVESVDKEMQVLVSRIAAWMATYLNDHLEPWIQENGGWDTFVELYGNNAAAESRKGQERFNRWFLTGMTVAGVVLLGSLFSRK
method: HTRF BCL-XL/BAK assay (Cisbio)
condition_description: recombinant human Tag1-BCL-XL 2 nM, Tag2-BAK 5 nM
Procedure: Then the pre-mixed anti-Tag1-Eu^3+ and anti-tag2-XL665 were added to the plate and further incubated at room temperature for another 2 hours. The signals ([…]) were read on Envision 2104 instrument. The IC50 for each compound was derived from fitting the signal of 665/615 nM to the increasing compound concentration. Using the above assays, the following compounds were tested.
# maps each entry to its IC50

{"compound": "CN1CCC2(CC1)CC(CNc1ccc(S(=O)(=O)NC(=O)c3ccc(N4CCN([C@@H]5CCCCc6c(Cl)cccc65)CC4)cc3Oc3cnc4[nH]ccc4c3)cc1[N+](=O)[O-])C2 [Compound 108]", "IC50": "< 20 nM"}
{"compound": "O=C(NS(=O)(=O)c1ccc(NCCN2CCOCC2)c([N+](=O)[O-])c1)c1ccc(N2CCN(C3CCCCc4c(Cl)cccc43)CC2)cc1Oc1cnc2[nH]ccc2c1 (stereo not shown) [Compound 31]", "IC50": "20 to 200 nM"}

stdin: # return recorded IC50 for entry CP(C)(=O)c1cccc2c1CCCCC2N1CCN(c2ccc(C(=O)NS(=O)(=O)c3ccc(NCC4CCOCC4)c([N+](=O)[O-])c3)c(Oc3cnc4[nH]ccc4c3)c2)CC1 (stereo not shown) [Compound 63]
stdout: > 2000 nM

stdin: # return recorded IC50 for entry CC(C)C(=O)N1CCC2(CC1)CC(CNc1ccc(S(=O)(=O)NC(=O)c3ccc(N4CCN([C@@H]5CCCCc6c(Cl)cccc65)CC4)cc3Oc3cnc4[nH]ccc4c3)cc1[N+](=O)[O-])C2 [Compound 124]
stdout: 20 to 200 nM

stdin: # return recorded IC50 for entry CC(C)(C)OC(=O)N1CCC2(CC1)CC(CNc1ccc(S(=O)(=O)NC(=O)c3ccc(N4CCN([C@@H]5CCCCc6c(Cl)cccc65)CC4)cc3Oc3cnc4[nH]ccc4c3)cc1[N+](=O)[O-])C2 [Compound 100]
stdout: 200 to 2000 nM

stdin: # return recorded IC50 for entry O=C(NS(=O)(=O)c1ccc(NCC2CCOCC2)c([N+](=O)[O-])c1)c1ccc(N2CCN(C3CCCCc4c(C5=CCCC5)cccc43)CC2)cc1Oc1cnc2[nH]ccc2c1 (stereo not shown) [Compound 47]
stdout: > 2000 nM

stdin: # return recorded IC50 for entry CC(=O)N1CCN(CCNc2ccc(S(=O)(=O)NC(=O)c3ccc(N4CCN(C5CCCCc6c(Cl)cccc65)CC4)cc3Oc3cnc4[nH]ccc4c3)cc2[N+](=O)[O-])CC1 (stereo not shown) [Compound 39]
stdout: 20 to 200 nM

stdin: # return recorded IC50 for entry O=C(NS(=O)(=O)c1ccc(NCC2CC3(CCN(CC(F)F)CC3)C2)c([N+](=O)[O-])c1)c1ccc(N2CCN([C@@H]3CCCCc4c(Cl)cccc43)CC2)cc1Oc1cnc2[nH]ccc2c1 [Compound 113]
stdout: 20 to 200 nM

stdin: # return recorded IC50 for entry O=C(NS(=O)(=O)c1ccc(NCC2CCN(C3COC3)CC2)c([N+](=O)[O-])c1)c1ccc(N2CCN([C@@H]3CCCCc4c(Cl)cccc43)CC2)cc1Oc1cnc2[nH]ccc2c1 [Compound 83]
stdout: < 20 nM

stdin: # return recorded IC50 for entry O=C(NS(=O)(=O)c1ccc(NCC2CCC3(CC2)COC3)c([N+](=O)[O-])c1)c1ccc(N2CCN([C@@H]3CCCCc4c3cccc4[N+](=O)[O-])CC2)cc1Oc1cnc2[nH]ccc2c1 [Compound 74]
stdout: 20 to 200 nM

* * *

target_system: BCL-XL (Homo sapiens)
Construct: purchased Cisbio 63ADK000CB04PEG
method: HTRF BCL-XL/BAK assay (Cisbio)
Type: binding
condition_description: recombinant human Tag1-BCL-XL 2 nM, Tag2-BAK 5 nM
pIC50: −log10 of the molar value.
# maps each entry to its pIC50

# count of solved cases: 3
{"compound": "O=C(NS(=O)(=O)c1ccc(NCC2CCOCC2)c([N+](=O)[O-])c1)c1ccc(N2CCN(C3CCCc4cccc(-c5ccc(Cl)cc5)c43)CC2)cc1Oc1cnc2[nH]ccc2c1 (stereo not shown)", "recorded_measurement": "5.70 to 6.70"}
{"compound": "CCOC(=O)CN1CCC2(CC1)CC(CNc1ccc(S(=O)(=O)NC(=O)c3ccc(N4CCN([C@@H]5CCCCc6c(Cl)cccc65)CC4)cc3Oc3cnc4[nH]ccc4c3)cc1[N+](=O)[O-])C2", "recorded_measurement": "6.70 to 7.70"}
{"compound": "O=C(NS(=O)(=O)c1ccc(NCC2(O)CCN(C3COC3)CC2)c([N+](=O)[O-])c1)c1ccc(N2CCN([C@@H]3CCCCc4c(Cl)cccc43)CC2)cc1Oc1cnc2[nH]ccc2c1", "recorded_measurement": "> 7.70"}

Next up:
stdin: # return recorded pIC50 for entry Cc1cccc2c1CCCCC2N1CCN(c2ccc(C(=O)NS(=O)(=O)c3ccc(NCC4CCOCC4)c([N+](=O)[O-])c3)c(Oc3cnc4[nH]ccc4c3)c2)CC1 (stereo not shown)
stdout: 5.70 to 6.70

* * *

target_system: BCL-XL (Homo sapiens)
method: HTRF BCL-XL/BAK assay (Cisbio)
condition_description: recombinant human Tag1-BCL-XL 2 nM, Tag2-BAK 5 nM
pIC50: −log10 of the molar value.
parameter_measured: pIC50

{"compound": "CN1CCC(CNc2ccc(S(=O)(=O)NC(=O)c3ccc(N4CCN([C@@H]5CCCCc6c(Cl)cc(F)cc65)CC4)cc3Oc3cnc4[nH]ccc4c3)cc2[N+](=O)[O-])CC1", "target_system": "BCL-XL (Homo sapiens)", "pIC50": "> 7.70"}
{"compound": "CN1CCc2ccccc2C(N2CCN(c3ccc(C(=O)NS(=O)(=O)c4ccc(NCC5CCOCC5)c([N+](=O)[O-])c4)c(Oc4cnc5[nH]ccc5c4)c3)CC2)C1=O (stereo not shown)", "target_system": "BCL-XL (Homo sapiens)", "pIC50": "5.70 to 6.70"}
{"compound": "O=C(NS(=O)(=O)c1ccc(NCC2CCOCC2)c([N+](=O)[O-])c1)c1ccc(N2CCN(C3CCCCc4ccc(F)cc43)CC2)cc1Oc1cnc2[nH]ccc2c1 (stereo not shown)", "target_system": "BCL-XL (Homo sapiens)", "pIC50": "5.70 to 6.70"}
{"compound": "O=C(NS(=O)(=O)c1ccc(NCC2CCOCC2)c([N+](=O)[O-])c1)c1ccc(N2CCN(C3CCCCc4c(-c5ccccc5)cccc43)CC2)cc1Oc1cnc2[nH]ccc2c1 (stereo not shown)", "target_system": "BCL-XL (Homo sapiens)", "pIC50": "< 5.70"}
{"compound": "O=C(NS(=O)(=O)c1ccc(NCCN2CCC3(CC2)COC3)c([N+](=O)[O-])c1)c1ccc(N2CCN([C@@H]3CCCCc4c(Br)cccc43)CC2)cc1Oc1cnc2[nH]ccc2c1", "target_system": "BCL-XL (Homo sapiens)", "pIC50": "> 7.70"}
{"compound": "O=C(NS(=O)(=O)c1ccc(NCC2CCOCC2)c([N+](=O)[O-])c1)c1ccc(N2CCN(C3CCCCc4cc(Br)ccc43)CC2)cc1Oc1cnc2[nH]ccc2c1 (stereo not shown)", "target_system": "BCL-XL (Homo sapiens)", "pIC50": "5.70 to 6.70"}

Next up:
stdin: # return recorded pIC50 for entry CC(CO)c1cccc2c1CCCCC2N1CCN(c2ccc(C(=O)NS(=O)(=O)c3ccc(NCC4CCOCC4)c([N+](=O)[O-])c3)c(Oc3cnc4[nH]ccc4c3)c2)CC1 (stereo not shown)
stdout: 5.70 to 6.70
